- Experimental protocol: physchem
- Conditions: octanol/water
- Description: Octanol-water partition coefficient, log P of the compound
Please map values of logP to classes as shown: b0: < 4; b1: ≥ 4 and < 6; b2: ≥ 6

Prompt: Class? Entry: `N=C(Cc1c(Cl)cccc1Cl)NC(=S)NCCc1ccc(Cl)cc1`
Response: b2

Prompt: // return the class label for `N#Cc1ccc(N/C(S)=N/C(=N)Cc2c(F)cccc2F)cc1`
Response: b0

Prompt: The entry to classify is `N#Cc1ccc(NC(=S)NC(=N)Cc2ccc(Cl)cc2Cl)cc1` ; which class holds it?
Response: b0

Prompt: // return the class label for `N#Cc1ccc(NC(=S)NC(=N)CCc2c(Cl)cccc2Cl)cc1`
Response: b1

Prompt: Record CN(C)C(Cc1c(Cl)cccc1Cl)/N=C(\S)Nc1ccc(C#N)cc1 (stereo unspecified) — which class?
Response: b1

Prompt: Note: place this compound into its band. Item: `Cc1ccccc1CC(=N)/N=C(\S)Nc1ccc(C#N)cc1`
Response: b0

Prompt: Category of `N#Cc1ccc(NC(=S)NC(=N)Cc2cccc(Cl)c2)cc1` , please.
Response: b0

Prompt: Class? Entry: `N#Cc1ccc(NC(=S)NC(=N)c2c(Cl)cccc2Cl)cc1`
Response: b1

====

- Experimental protocol: physchem
- Conditions: octanol/water
Rule: logP under 4 gives f, otherwise t.

These solved cases illustrate the format of a correct answer.
{"columns": ["Record smiles", "Discrete label"],
 "data": [
  ["N=C(Cc1c(Cl)cccc1Cl)NC(=S)Nc1ccc(Cl)cc1", "t"],
  ["N=C(Cc1c(Cl)cccc1Cl)NC(=S)Nc1ccccc1", "f"],
  ["N#Cc1ccc(NC(=S)NC(=N)Cc2c(Cl)cccc2Cl)cc1", "t"]
]}

Prompt: Entry `COc1ccccc1CC(=N)/N=C(\S)Nc1ccc(C#N)cc1` : is its logP no less than 4?
Response: f

Prompt: Kindly determine if logP recorded for `N#C/N=C(\NCCc1ccc(C#N)cc1)N/C(Cc1c(Cl)cccc1Cl)=N\c1ccccc1` is above or exactly 4.
Response: t

Prompt: Is the recorded value of logP equal to or greater than 4 for this molecule? `N#Cc1ccc(NC(=S)NC(=N)Cc2ccc(Cl)cc2)cc1`
Response: f

====

- Experimental protocol: physchem
- Conditions: octanol/water
Reported logP values for the following compounds.
Answer with the value's number alone.

Previously resolved entries follow.
{"columns": ["Compound", "logP"],
 "data": [
  ["N#Cc1ccc(NC(=S)NC(=N)C2(c3c(Cl)cccc3Cl)CC2)cc1", 6.11],
  ["CC(C(=N)/N=C(\\S)Nc1ccc(C#N)cc1)c1c(Cl)cccc1Cl (stereo not drawn)", 5.95],
  ["N#Cc1ccc(NC(=S)NC(=N)Cc2ccccc2Cl)cc1", 3.19],
  ["CN(C)C(Cc1c(Cl)cccc1Cl)NC(=N)Nc1ccc(C#N)cc1 (stereo not drawn)", 7.06],
  ["N#Cc1ccc(NC(=S)NC(=N)Cc2c(Cl)ccc(Cl)c2Cl)cc1", 4.22]
]}

Prompt: Requested field: logP. Item: `N=C(Cc1c(Cl)cccc1Cl)NC(=S)Nc1ccc(Cl)cc1Cl`
Response: 4.7

Prompt: Request the reported logP associated with `C/N=C(/Cc1c(Cl)cccc1Cl)NC(=O)Nc1ccc(C#N)cc1`
Response: 5.96

Prompt: Recorded logP for `CCN/C(Cc1c(Cl)cccc1Cl)=N\C(S)=N\c1ccc(C#N)cc1` , please?
Response: 5.77

Prompt: I am curious: what logP value has been reported for `N#Cc1ccc(NC(=S)NC(=N)Cc2ccccc2)cc1` ?
Response: 2.67

Prompt: For the compound shown here, `N=C(Cc1c(Cl)cccc1Cl)NC(=S)NCc1ccc(Cl)cc1` , give the reported logP.
Response: 5.97

====

# reported logP; entries follow
- Experimental protocol: physchem
- Conditions: octanol/water
Lab note: record just the number, no unit beside it.

Example results:
{"columns": ["Record smiles", "logP"],
 "data": [
  ["N#Cc1ccc(NC(=O)NC(=N)Cc2c(Cl)cccc2Cl)cc1", 3.71],
  ["CN/C(Cc1c(Cl)cccc1Cl)=N\\C(S)=N\\c1ccc(C#N)cc1", 6.75]
]}

As a next step, examine the compound that follows.
Prompt: Fill blank: measured logP of the compound `N#Cc1cccc(NC(=S)NC(=N)Cc2c(Cl)cccc2Cl)c1` is ____.
Response: 3.7

Taken from ChEMBL document CHEMBL3046335.
